molecular target: T1, cynomolgus ROR1 (cynoROR1) on CHO-K1 cells (cynomolgus, UniProt A0A2K5WTX7 30-937); assay: FACS, CHO-K1-cynoROR1 cells
T1 construct: whole, on cells; also called CHO-K1-cynoROR1; CHO-K1-cyROR1
VALUE TYPE: MAX(MFI)

>>> recorded_measurement("Positive control antibody (PR000374) (antibody, human IgG1, kappa, V domains shown) VH: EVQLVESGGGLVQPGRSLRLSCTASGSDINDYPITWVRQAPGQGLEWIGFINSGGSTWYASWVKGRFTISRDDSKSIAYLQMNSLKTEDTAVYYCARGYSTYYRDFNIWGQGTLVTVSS VL: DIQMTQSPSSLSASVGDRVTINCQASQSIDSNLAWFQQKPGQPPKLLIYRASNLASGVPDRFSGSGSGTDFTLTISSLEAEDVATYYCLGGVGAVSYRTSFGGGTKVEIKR")
31900
>>> recorded_measurement("PR001361 (antibody, V domains shown, fully human IgG1, kappa) VH: QVQLVQSGGGVVQPGRSLRLSCTASGFTFSRYGMLWVRQAPGKGLEWVAVAWYDGVSEDYADSVKGRFTISRDNSMNTLSLQMNSLRAEDTAVYYCAREQARSFDLWGRGTLVTVSS VL: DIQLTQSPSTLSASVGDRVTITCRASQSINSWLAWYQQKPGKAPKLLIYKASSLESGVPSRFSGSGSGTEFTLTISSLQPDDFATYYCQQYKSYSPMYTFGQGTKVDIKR")
27200
>>> recorded_measurement("PR001354 (antibody, human IgG1, kappa, V domains shown, fully human IgG1, kappa; also called anti-ROR1 1015M2-C9 hIgG1; PR001354(WT)) VH: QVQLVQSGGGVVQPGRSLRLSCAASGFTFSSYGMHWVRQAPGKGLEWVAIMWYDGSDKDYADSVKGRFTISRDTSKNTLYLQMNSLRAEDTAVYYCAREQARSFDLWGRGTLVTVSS VL: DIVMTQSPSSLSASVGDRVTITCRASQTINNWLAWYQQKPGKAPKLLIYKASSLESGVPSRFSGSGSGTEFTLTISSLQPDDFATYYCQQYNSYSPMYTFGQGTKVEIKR")
27000
